assay-overview: Phase 1 multiple ascending dose study of grapiprant tablets: serum pharmacokinetics
Type: in vivo, human
test-settings: human, serum, oral, 150 mg, 150 mg BID tablets, Day 1, healthy adults, serum, median
measurement-label: Tmax (h)
Give the number; h is assumed, so skip it.

Ask: Give recorded Tmax. CCc1nc2c(C)nc(C)cc2n1-c1ccc(CCNC(=O)NS(=O)(=O)c2ccc(C)cc2)cc1
Result: 1.5

---

assay-overview: Phase 1 single ascending dose study of grapiprant OPC: pharmacokinetics
Assay type: in vivo, human
test-settings: human, oral; single 100 mg dose as OPC, fasted, healthy adults, serum, mean
measurement-label: AUC(0-inf) (ng·h/mL)
Give the number; ng·h/mL is assumed, so skip it.

Ask: Give recorded AUC(0-inf). CCc1nc2c(C)nc(C)cc2n1-c1ccc(CCNC(=O)NS(=O)(=O)c2ccc(C)cc2)cc1 [Grapiprant]
Result: 7220

---

assay-overview: Phase 1 single ascending dose study of grapiprant OPC: pharmacokinetics
Type: in vivo, human
test-settings: human, oral; single 2000 mg dose as OPC, fasted, healthy adults, serum, mean
measurement-label: AUC(0-inf) (µg·h/mL)
Give the number; µg·h/mL is assumed, so skip it.

Ask: Give recorded AUC(0-inf). CCc1nc2c(C)nc(C)cc2n1-c1ccc(CCNC(=O)NS(=O)(=O)c2ccc(C)cc2)cc1 [Grapiprant]
Result: 479

---

assay-overview: Phase 1 single ascending dose study of grapiprant OPC: pharmacokinetics
Assay type: in vivo, human
test-settings: human, oral; single 10 mg dose as OPC, fasted, healthy adults, serum, mean
measurement-label: AUC(0-t) (ng·h/mL)
Give the number; ng·h/mL is assumed, so skip it.

Ask: Give recorded AUC(0-t). CCc1nc2c(C)nc(C)cc2n1-c1ccc(CCNC(=O)NS(=O)(=O)c2ccc(C)cc2)cc1 [Grapiprant]
Result: 901

---

assay-overview: Phase 1 single ascending dose study of grapiprant OPC: pharmacokinetics
Format: in vivo, human
test-settings: human, oral; single 1 mg dose as OPC, fasted, healthy adults, serum, mean
measurement-label: AUC(0-t) (ng·h/mL)
Give the number; ng·h/mL is assumed, so skip it.

Ask: Give recorded AUC(0-t). CCc1nc2c(C)nc(C)cc2n1-c1ccc(CCNC(=O)NS(=O)(=O)c2ccc(C)cc2)cc1
Result: 59.1

---

assay-overview: Phase 1 crossover food effect study of 375 mg grapiprant tablets: pharmacokinetics
Assay type: in vivo, human
test-settings: human, serum, po, 375 mg, 375 mg tablet-fed (high-fat meal), single oral dose, healthy subjects (N = 12), arithmetic mean; read-out: AUC(0-tlast)
measurement-label: AUC(0-t) (ng·h/mL)
Give the number; ng·h/mL is assumed, so skip it.

Ask: Give recorded AUC(0-t). CCc1nc2c(C)nc(C)cc2n1-c1ccc(CCNC(=O)NS(=O)(=O)c2ccc(C)cc2)cc1
Result: 24600

---

assay-overview: Phase 1 crossover food effect study of 375 mg grapiprant tablets: pharmacokinetics
Format: in vivo, human
test-settings: human, serum, po, 375 mg, 375 mg tablet-fasted, single oral dose, healthy subjects (N = 12), arithmetic mean
measurement-label: Cmax (µg/mL)
Give the number; µg/mL is assumed, so skip it.

Ask: Give recorded Cmax. CCc1nc2c(C)nc(C)cc2n1-c1ccc(CCNC(=O)NS(=O)(=O)c2ccc(C)cc2)cc1 [Grapiprant]
Result: 8.99

---

assay-overview: Phase 1 multiple ascending dose study of grapiprant tablets: serum pharmacokinetics
Type: in vivo, human
test-settings: human, serum, oral, 150 mg, 150 mg BID tablets, Day 14 (n = 9), healthy adults, serum, mean
Source text: Serum pharmacokinetic parameters can be computed using WinNonlin Version 3.2 (Pharsight®, Mountain View, Calif.) using standard non-compartmental methods. […] As used herein, the term “AUC(0-tlast)” refers to the area under the serum concentration vs. time curve from time 0 to Tlast (the time of the last quantifiable concentration estimated using the linear/log trapezoidal approximation). […] As used herein, the term “t½” refers to terminal phase half-life calculated as ln(2)/kel. […]
measurement-label: Cmax (ng/mL)
Give the number; ng/mL is assumed, so skip it.

Ask: Give recorded Cmax. CCc1nc2c(C)nc(C)cc2n1-c1ccc(CCNC(=O)NS(=O)(=O)c2ccc(C)cc2)cc1 [Grapiprant]
Result: 2670

---

assay-overview: Phase 1 multiple ascending dose study of grapiprant tablets: urine pharmacokinetics
Assay type: in vivo, human
test-settings: human, urine and serum; 250 mg BID (Elderly) (n = 14), after 14 days of multiple oral dosing (Day 17), mean (SD)
Text: Urine pharmacokinetic parameters can be used to assess the amount of parent drug excreted unchanged in the urine. The urine pharmacokinetic parameters can be calculated under the assumption that the amount of grapiprant excreted unchanged in the urine over the dosing interval was at steady state on the last day of dosing for the 14 day and 17 day oral administration described herein. […] As used herein, the term “CLR” refers to renal clearance on day 14 or day 17, calculated by (AE/AUCτ). […]
measurement-label: CL renal (mL/min)
Give the number; mL/min is assumed, so skip it.

Ask: Give recorded CL renal. CCc1nc2c(C)nc(C)cc2n1-c1ccc(CCNC(=O)NS(=O)(=O)c2ccc(C)cc2)cc1 [Grapiprant]
Result: 25

---

assay-overview: Phase 1 single ascending dose study of grapiprant OPC: pharmacokinetics
Assay type: in vivo, human
test-settings: human, oral; single 30 mg dose as OPC, fasted, healthy adults, serum, mean
measurement-label: AUC(0-t) (ng·h/mL)
Give the number; ng·h/mL is assumed, so skip it.

Ask: Give recorded AUC(0-t). CCc1nc2c(C)nc(C)cc2n1-c1ccc(CCNC(=O)NS(=O)(=O)c2ccc(C)cc2)cc1
Result: 2120

---

assay-overview: Phase 1 single ascending dose study of grapiprant OPC: pharmacokinetics
Assay type: in vivo, human
test-settings: human, oral; single 1500 mg dose as OPC, fasted, healthy adults, serum, mean
measurement-label: AUC(0-inf) (µg·h/mL)
Give the number; µg·h/mL is assumed, so skip it.

Ask: Give recorded AUC(0-inf). CCc1nc2c(C)nc(C)cc2n1-c1ccc(CCNC(=O)NS(=O)(=O)c2ccc(C)cc2)cc1 [Grapiprant]
Result: 242

---

assay-overview: Phase 1 single ascending dose study of grapiprant OPC: pharmacokinetics
Format: in vivo, human
test-settings: human, oral; single 3 mg dose as OPC, fasted, healthy adults, serum, mean
measurement-label: Cmax (ng/mL)
Give the number; ng/mL is assumed, so skip it.

Ask: Give recorded Cmax. CCc1nc2c(C)nc(C)cc2n1-c1ccc(CCNC(=O)NS(=O)(=O)c2ccc(C)cc2)cc1
Result: 23.1

---

assay-overview: Phase 1 multiple ascending dose study of grapiprant tablets: serum pharmacokinetics
Format: in vivo, human
test-settings: human, serum, oral, 50 mg, 50 mg BID tablets, Day 14 (n = 8), healthy adults, serum, mean
measurement-label: Cmax (ng/mL)
Give the number; ng/mL is assumed, so skip it.

Ask: Give recorded Cmax. CCc1nc2c(C)nc(C)cc2n1-c1ccc(CCNC(=O)NS(=O)(=O)c2ccc(C)cc2)cc1 [Grapiprant]
Result: 611

---

assay-overview: Phase 1 multiple ascending dose study of grapiprant tablets: serum pharmacokinetics
Assay type: in vivo, human
test-settings: human, serum, oral, 300 mg, 300 mg BID tablets, Day 14 (n = 9), healthy adults, serum, mean
Excerpt: Serum pharmacokinetic parameters can be computed using WinNonlin Version 3.2 (Pharsight®, Mountain View, Calif.) using standard non-compartmental methods. […] As used herein, the term “AUC(0-tlast)” refers to the area under the serum concentration vs. time curve from time 0 to Tlast (the time of the last quantifiable concentration estimated using the linear/log trapezoidal approximation). […] As used herein, the term “t½” refers to terminal phase half-life calculated as ln(2)/kel. […]
measurement-label: Cmax (ng/mL)
Give the number; ng/mL is assumed, so skip it.

Ask: Give recorded Cmax. CCc1nc2c(C)nc(C)cc2n1-c1ccc(CCNC(=O)NS(=O)(=O)c2ccc(C)cc2)cc1
Result: 10400

---

assay-overview: Phase 1 multiple ascending dose study of grapiprant tablets: serum pharmacokinetics
Assay type: in vivo, human
test-settings: human, serum, oral, 250 mg, 250 mg BID tablets, Day 1, elderly with mild renal impairment, serum, median
measurement-label: Tmax (h)
Give the number; h is assumed, so skip it.

Ask: Give recorded Tmax. CCc1nc2c(C)nc(C)cc2n1-c1ccc(CCNC(=O)NS(=O)(=O)c2ccc(C)cc2)cc1
Result: 1

---

assay-overview: Phase 1 single ascending dose study of grapiprant OPC: pharmacokinetics
Format: in vivo, human
test-settings: human, oral; single 1000 mg dose as OPC, fasted, healthy adults, serum, mean
measurement-label: AUC(0-inf)

Ask: Give recorded AUC(0-inf). CCc1nc2c(C)nc(C)cc2n1-c1ccc(CCNC(=O)NS(=O)(=O)c2ccc(C)cc2)cc1
Result: 175 µg·h/mL

---

assay-overview: Phase 1 single ascending dose study of grapiprant OPC: pharmacokinetics
Assay type: in vivo, human
test-settings: human, oral; single 1500 mg dose as OPC, fasted, healthy adults, serum, mean
Protocol: Eligible subjects were to be enrolled into 8 sequential cohorts, corresponding to the planned dose levels of 1 mg, 3 mg, 10 mg, 30 mg, 100 mg, 300 mg, 600 mg, and 1000 mg. […] After determining a maximum tolerated dose (MTD), or after completing the highest dose cohort if a MTD was not determined, Cohort 11 would be enrolled to increase the number of subjects evaluated at the MTD (or the highest dose). […]
measurement-label: Cmax (µg/mL)
Give the number; µg/mL is assumed, so skip it.

Ask: Give recorded Cmax. CCc1nc2c(C)nc(C)cc2n1-c1ccc(CCNC(=O)NS(=O)(=O)c2ccc(C)cc2)cc1
Result: 83.8
